meta.source: patent US10760052B2

Parameter: Concentration of FLNA-Binding Compound as Agonist 1 μM. Scope: all listed entries.
- test.system: mu opiate receptor (MOR) (Rattus norvegicus)
- Construct: from tissue; host or cells: striatum (membrane preparation)
- Type: biochemical
- run.parameters: [35S]GTPγS binding to Gαo in striatal membranes; compound 1 μM
- Method: To assess the mu opiate receptor (MOR) agonist activity of positive compounds from the FLNA screening, compounds were tested in a [^35S]GTPγS binding assay using striatal membranes. […] The immunocomplexes so formed were collected by incubation at 25° C. for 30 minutes with 40 μl of agarose-conjugated protein A/G beads and centrifugation at 5,000×g at 4° C. for 5 minutes. […] The radioactivity in the suspension was determined by liquid scintillation spectrometry.
State just the number; it will be interpreted in %.

// below: answered molecules
- molecule: "CCOc1ccc(C(=O)CC2c3c(cc4c(c3OC)OCO4)CC[N+]2(C)C)cc1F (centres unmarked) [Compound B0020]"
  unit.string: "%"
  readout.value: 181.6
- molecule: "O=C(c1ccc([N+](=O)[O-])cc1)N1CCC2(CC1)OCCN2S(=O)(=O)c1ccc([N+](=O)[O-])cc1 [Compound C0022]"
  unit.string: "%"
  readout.value: 328.7
- molecule: "CC1CCC(C(C)C)C(OCC(O)CN2CCSC2)C1 (centres unmarked) [Compound A0002]"
  unit.string: "%"
  readout.value: 199.4
- molecule: "O=C1CN(Cc2ccccc2)C2(CCN(S(=O)(=O)c3cc(Cl)cc(Cl)c3O)CC2)N1 [Compound C0138M]"
  unit.string: "%"
  readout.value: 183.9
- molecule: "COc1ccc(S(=O)(=O)N2CCOC23CCN(S(=O)(=O)c2ccc(C(C)=O)cc2)CC3)cc1 [Compound C0047]"
  unit.string: "%"
  readout.value: 206.1

Q. Which measured Concentration of FLNA-Binding Compound as Agonist 1 μM value corresponds to COc1ccc(OCC(O)CN2CCc3ccccc3C2)cc1 (centres unmarked) [Compound A0053] ?
A. 118.2

Q. Which Concentration of FLNA-Binding Compound as Agonist 1 μM value belongs to O=C(O)c1ccc(C(=O)N2CCC3(CC2)OCCN3S(=O)(=O)c2ccc(C(=O)O)cc2)cc1 [Compound C0021] ?
A. 192.0

Q. What does the record list as Concentration of FLNA-Binding Compound as Agonist 1 μM for CC1CCC(C(C)C)C(OCC(O)CN2CCOCC2)C1 (centres unmarked) [Compound A0004] ?
A. 144.2

====

- test.system: mu opiate receptor (MOR) (Rattus norvegicus, UniProt P33535)
- Construct: from tissue; host or cells: striatum (membrane preparation)
- Sequence (P33535 whole entry): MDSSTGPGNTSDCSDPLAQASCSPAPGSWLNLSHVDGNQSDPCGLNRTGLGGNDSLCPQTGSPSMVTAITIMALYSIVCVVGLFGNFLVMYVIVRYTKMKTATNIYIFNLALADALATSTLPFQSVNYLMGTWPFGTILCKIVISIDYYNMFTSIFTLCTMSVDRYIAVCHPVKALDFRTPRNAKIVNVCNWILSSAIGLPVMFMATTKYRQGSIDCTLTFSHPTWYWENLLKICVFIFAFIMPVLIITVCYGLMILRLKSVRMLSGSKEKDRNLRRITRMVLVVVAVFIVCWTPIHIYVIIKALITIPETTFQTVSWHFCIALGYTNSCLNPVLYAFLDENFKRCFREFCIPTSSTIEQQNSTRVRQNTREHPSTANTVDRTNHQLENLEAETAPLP
- Assay type: biochemical
# % DAMGO (0.1 μM) per entry
Could you give the number and then its unit, please?

Example cases with answers are listed next.
- compound: "COc1ccc(C(=O)N2CCC3(CC2)OCCN3S(=O)(=O)c2ccc(OC)cc2)cc1 [Compound C0018]"
  readout.value: "110.7%"
- compound: "CC(=O)c1ccc(S(=O)(=O)N2CC(CN(C)C)OC23CCN(CC2CC2)CC3)cc1 (stereo not shown) [Compound C0128M]"
  readout.value: "104.5%"
- compound: "COc1c2c(cc3c1C(CC(=O)Cc1ccccc1C)[N+](C)(C)CC3)OCO2 (stereo not shown) [Compound B0031]"
  readout.value: "109.6%"

Q. I'm curious: which % DAMGO (0.1 μM) was measured for COc1ccccc1CC(O)CC1c2c(cc3c(c2OC)OCO3)CC[N+]1(C)C (stereo not shown) [Compound B0032] tested on mu opiate receptor (MOR) (Rattus norvegicus, UniProt P33535)?
A. 115.0%

Q. Request body: readout % DAMGO (0.1 μM), system mu opiate receptor (MOR) (Rattus norvegicus, UniProt P33535), query COc1cccc(CCC(=O)CC2c3c(cc4c(c3OC)OCO4)CC[N+]2(C)C)c1 (stereo not shown) [Compound B0034] . Return the value.
A. 71.6%

Q. Report % DAMGO (0.1 μM) for COc1ccc(OCC(O)CN2CCc3ccccc3C2)cc1 (stereo not shown) [Compound A0053] tested on mu opiate receptor (MOR) (Rattus norvegicus, UniProt P33535).
A. 46.5%

Q. Value wanted: % DAMGO (0.1 μM) (mu opiate receptor (MOR) (Rattus norvegicus, UniProt P33535)) of entry CC1CN(CC(O)COc2cccc(F)c2)CC(C)O1 (stereo not shown) [Compound A0049]
A. 118.4%

Q. Recall the recorded % DAMGO (0.1 μM) for O=[N+]([O-])c1ccc(S(=O)(=O)N2CCC3(CC2)NCCO3)cc1 [Compound C0040] with mu opiate receptor (MOR) (Rattus norvegicus, UniProt P33535) and state it.
A. 93.1%
